target.under.test: bc1 complex (complex III) (Eikenella corrodens)
Construct: native complex in isolated membrane particles, not purified; with Ubiquinol-cytochrome c reductase iron-sulfur subunit; Cytochrome c1
Sequence (V7IIL5 1-530): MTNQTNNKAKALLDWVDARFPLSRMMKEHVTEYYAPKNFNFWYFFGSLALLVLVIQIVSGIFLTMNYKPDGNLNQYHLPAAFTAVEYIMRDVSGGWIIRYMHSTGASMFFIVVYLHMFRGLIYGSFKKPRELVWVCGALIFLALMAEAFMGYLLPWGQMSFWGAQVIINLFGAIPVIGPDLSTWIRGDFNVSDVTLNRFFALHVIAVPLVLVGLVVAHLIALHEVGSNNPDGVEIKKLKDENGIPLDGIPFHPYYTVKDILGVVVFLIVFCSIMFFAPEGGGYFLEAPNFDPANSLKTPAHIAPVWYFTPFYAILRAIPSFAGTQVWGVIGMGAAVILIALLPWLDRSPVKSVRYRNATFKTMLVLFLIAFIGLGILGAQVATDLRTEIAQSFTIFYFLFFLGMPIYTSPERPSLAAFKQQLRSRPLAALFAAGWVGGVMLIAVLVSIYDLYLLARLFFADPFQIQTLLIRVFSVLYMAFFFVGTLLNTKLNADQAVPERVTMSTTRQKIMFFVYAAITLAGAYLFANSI
Sequence (V7IHH9 1-197 partner): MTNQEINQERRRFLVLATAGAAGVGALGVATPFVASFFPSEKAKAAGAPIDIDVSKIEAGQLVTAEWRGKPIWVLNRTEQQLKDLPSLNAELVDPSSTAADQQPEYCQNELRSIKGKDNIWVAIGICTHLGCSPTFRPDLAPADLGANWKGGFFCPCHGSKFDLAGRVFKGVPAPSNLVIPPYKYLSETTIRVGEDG
experimental.details: polarographic O2 uptake (Clark electrode), succinate oxidase of membranes
run.parameters: succinate as substrate, 34 °C; read-out is the whole succinate respiration
assay.readout: IC50 (µM)
Give the value, in units of µM, as a plain number.

*Q* For the compound CCCCCCCc1cc(O)c2ccccc2[n+]1[O-] [HQNO, 2-heptyl-4-hydroxyquinoline-N-oxide] , give its reported IC50.
*A* 40
